test system: S. aureus DSM 20231; assay: Bliss interaction score (quartile over a dose matrix) (fitness difference); higher = more antagonism (negative = synergy);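 note: first quartile when negative (synergy) and third quartile when positive (antagonism)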
READOUT: Bliss interaction score
Answers are plain numbers.

Consider the reported Bliss interaction score for these molecules:
CC(C)Cc1ccc(C(C)C(=O)O)cc1 (centres undefined) [Ibuprofen] + COc1cc(Cc2cnc(N)nc2N)cc(OC)c1OC [Trimethoprim] = -0.145
CC(=O)NC[C@H]1CN(c2ccc(N3CCOCC3)c(F)c2)C(=O)O1 [Linezolid] + C/C(=C\C(=O)OCCCCCCCCC(=O)O)C[C@@H]1OC[C@H](C[C@@H]2O[C@H]2[C@@H](C)[C@H](C)O)[C@@H](O)[C@H]1O [Pseudomonic acid] = 0.0202

For every item in the list below, what is its measured Bliss interaction score?
1. CC(=O)NC[C@H]1CN(c2ccc(N3CCOCC3)c(F)c2)C(=O)O1 [Linezolid] + CC1(C)S[C@@H]2[C@H](NC(=O)Cc3ccccc3)C(=O)N2[C@H]1C(=O)O [PenicillinG]
2. CC(C)(O)c1ccccc1CC[C@@H](SCC1(CC(=O)O)CC1)c1cccc(/C=C/c2ccc3ccc(Cl)cc3n2)c1 [Montelukast] + COc1cc(Cc2cnc(N)nc2N)cc(OC)c1OC [Trimethoprim]
3. CC(=O)NC[C@H]1CN(c2ccc(N3CCOCC3)c(F)c2)C(=O)O1 [Linezolid] + CN(N=O)C(=O)N[C@@H](C=O)[C@@H](O)[C@H](O)[C@H](O)CO [Streptozotocin]

## Result
1. 0.0632
2. -0.299
3. -0.0379

// for each molecule below, give its Bliss interaction score
1. CO[C@H]1/C=C/O[C@@]2(C)Oc3c(C)c(O)c4c(O)c(c(/C=N/N5CCN(C)CC5)c(O)c4c3C2=O)NC(=O)/C(C)=C\C=C\[C@H](C)[C@H](O)[C@@H](C)[C@@H](O)[C@@H](C)[C@H](OC(C)=O)[C@@H]1C [Rifampicin] + CC1=C\[C@@H](O)CC(=O)Cc2nc(co2)C(=O)N2CCC=C2C(=O)O[C@H](C(C)C)[C@H](C)/C=C/C(=O)NC\C=C\1 [Virginiamycin M1]
2. CC(=O)NC[C@H]1CN(c2ccc(N3CCOCC3)c(F)c2)C(=O)O1 [Linezolid] + COc1ccc(C[C@H](N)C(=O)N[C@H]2[C@@H](O)[C@H](n3cnc4c(N(C)C)ncnc43)O[C@@H]2CO)cc1 [Puromycin]
3. CO[C@@]12[C@H](COC(N)=O)C3=C(C(=O)C(C)=C(N)C3=O)N1C[C@@H]1N[C@@H]12 [MitomycinC] + CCCc1nc2c(C)cc(-c3nc4ccccc4n3C)cc2n1Cc1ccc(-c2ccccc2C(=O)O)cc1 [Telmisartan]
4. CC[C@H]1OC(=O)[C@H](C)[C@@H](O[C@H]2C[C@@](C)(OC)[C@@H](O)[C@H](C)O2)[C@H](C)[C@@H](O[C@@H]2O[C@H](C)C[C@H](N(C)C)[C@H]2O)[C@](C)(O)C[C@@H](C)C(=O)[C@H](C)[C@@H](O)[C@]1(C)O [Erythromycin] + CC(=O)O[C@H]1C[C@@]2(C)[C@@H](C[C@@H](O)[C@H]3[C@@]4(C)CC[C@@H](O)[C@@H](C)[C@@H]4CC[C@@]32C)/C1=C(\CCC=C(C)C)C(=O)O [Fusidic acid]

## Result
0.0924
-0.0587
-0.162
0.0374
